Tested on: UACC-257 melanoma
Assay: NCI tumour cell line growth inhibition, 48 h; in the data active means GI50 below about 0.43 µM; inactive means the rest
Permitted responses: active, inactive

Worked cases, answers included:
COc1ccc(C2=N[C@@H](Cc3ccccc3)C(=O)Nc3ccsc32)cc1 | inactive
Fc1cccc(COc2ccc(Nc3ncnc4sc(-c5cccs5)cc34)cc2Cl)c1 | inactive
CC(=O)c1ccc2c(c1)c1cc(C(C)=O)ccc1n2CCNC(C)C | active

Write down the call the test reported for this compound. Item: Cc1cc2nc3c4cc(O)ccc4n(CCN(C)C)c3nc2cc1C
inactive

Write down the call the test reported for this compound. Item: Cc1cccc(N(C)C(=O)[C@@H]2[C@H](O)CCN2c2nc(C)cc(C(F)(F)F)c2C#N)c1
inactive

Write down the call the test reported for this compound. Item: COc1cc(C2Cc3ncccc3-c3[nH]c(=O)c4cccnc4c32)cc(OC)c1OC (stereo not given)
inactive

Write down the call the test reported for this compound. Item: COCC1CCCN1c1ccc(C=N/C(C#N)=C(\N)C#N)cc1 (stereo not given)
inactive

Write down the call the test reported for this compound. Item: OCCN1CCN(CCCN2c3ccccc3Sc3ccc(Cl)cc32)CC1
inactive

Write down the call the test reported for this compound. Item: COc1cc(Nc2nc3cc(N)cc(N)c3nc2-c2ccccc2)cc(OC)c1OC
inactive

Write down the call the test reported for this compound. Item: CCN1C/C(=C\c2cc(OC)c(OC)cc2OC)C(=O)/C(=C/c2cc(OC)c(OC)cc2OC)C1
inactive
